meta.source: patent US20080220080A1

assay: active ingredient delivery in PhEur phosphate buffer of pH 6.8 in a USP dissolution tester (theophylline pellets); type: physicochemical; conditions: substance in pellet core under EUDRAGIT RS coating
experimental endpoint: effect of the modulating substance on the rate of active ingredient delivery

[[record]]
molecule = "CC(=O)[O-].[Na+] [sodium acetate]"
reading = "accelerating effect"

[[record]]
molecule = "O=C([O-])CCC(=O)[O-].[Na+].[Na+] [sodium succinate]"
reading = "accelerating effect"

